- System: MCF7
- test protocol: percentage of EdU-negative (G0-arrested) nuclei per well, 72 h; higher = more G0 arrest
- condition info: protein concentration 0.0357143 µM; reference: sequence is the full UniProt precursor, the tested protein was the secreted form or ectodomain
Provide the recorded percentage of EdU-negative for the entries that follow.
# output: bare number, implied unit %

Qu. So what percentage of EdU-negative did MNPTLILAAFCLGIASATLTFDHSLEAQWTKWKAMHNRLYGMNEEGWRRAVWEKNMKMIELHNQEYREGKHSFTMAMNAFGDMTSEEFRQVMNGFQNRKPRKGKVFQEPLFYEAPRSVDWREKGYVTPVKNQGQCGSCWAFSATGALEGQMFRKTGRLISLSEQNLVDCSGPQGNEGCNGGLMDYAFQYVQDNGGLDSEESYPYEATEESCKYNPKYSVANDTGFVDIPKQEKALMKAVATVGPISVAIDAGHESFLFYKEGIYFEPDCSSEDMDHGVLVVGYGFESTESDNNKYWLVKNSWGEEWGMGGYVKMAKDRRNHCGIASAASYPTV get with MCF7?
Ans. 27.8

Qu. What would you report for MNRFLLLMSLYLLGSARGTSSQPNELSGSIDHQTSVQQLPGEFFSLENPSDAEALYETSSGLNTLSEHGSSEHGSSKHTVAEHTSGEHAESEHASGEPAATEHAEGEHTVGEQPSGEQPSGEHLSGEQPLSELESGEQPSDEQPSGEHGSGEQPSGEQASGEQPSGEHASGEQASGAPISSTSTGTILNCYTCAYMNDQGKCLRGEGTCITQNSQQCMLKKIFEGGKLQFMVQGCENMCPSMNLFSHGTRMQIICCRNQSFCNKI ?
Ans. 24.8

Qu. Input MGPLSAPPCTEHIKWKGLLVTASLLNFWNLPTTAQVTIEAQPPKVSEGKDVLLLVHNLPQNLTGYIWYKGQIRDLYHYITSYVVDGQIIIYGPAYSGRETAYSNASLLIQNVTREDAGSYTLHIIKRGDGTRGVTGYFTFTLYLETPKPSISSSNLNPREAMETVILTCDPETPDTSYQWWMNGQSLPMTHRFQLSETNRTLFLFGVTKYTAGPYECEIRNSGSASRSDPVTLNLLHGPDLPRIHPSYTNYRSGDNLYLSCFANSNPPAQYSWTINGKFQQSGQNLFIPQITTKHSGLYVCSVRNSATGEESSTSLTVKVSASTRIGLLPLLNPT
Ans. 24.9

Qu. // repeat for MAAAAATKILLCLPLLLLLSGWSRAGRADPHSLCYDITVIPKFRPGPRWCAVQGQVDEKTFLHYDCGNKTVTPVSPLGKKLNVTTAWKAQNPVLREVVDILTEQLRDIQLENYTPKEPLTLQARMSCEQKAEGHSSGSWQFSFDGQIFLLFDSEKRMWTTVHPGARKMKEKWENDKVVAMSFHYFSMGDCIGWLEDFLMGMDSTLEPSAGAPLAMSSGTTQLRATATTLILCCLLIILPCFILPGI [Q9BZM5] and report
Ans. 22.2

Qu. Repeat with MAAAWTVVLVTLVLGLAVAGPVPTSKPTTTGKGCHIGRFKSLSPQELASFKKARDALEESLKLKNWSCSSPVFPGNWDLRLLQVRERPVALEAELALTLKVLEAAAGPALEDVLDQPLHTLHHILSQLQACIQPQPTAGPRPRGRLHHWLHRLQEAPKKESAGCLEASVTFNLFRLLTRDLKYVADGNLCLRTSTHPEST [Q8IU54]
Ans. 25.7

Qu. MKLQCVSLWLLGTILILCSVDNHGLRRCLISTDMHHIEESFQEIKRAIQAKDTFPNVTILSTLETLQIIKPLDVCCVTKNLLAFYVDRVFKDHQEPNPKILRKISSIANSFLYMQKTLRQCQEQRQCHCRQEATNATRVIHDNYDQLEVHAAAIKSLGELDVFLAWINKNHEVMFSA [Q9UHD0] ?
Ans. 24.3

====

- Test system: MCF7
- test protocol: percentage of EdU-negative (G0-arrested) nuclei per well, 72 h; higher = more G0 arrest
- condition info: protein concentration 0.225 µM; reference: sequence is the full UniProt precursor, the tested protein was the secreted form or ectodomain
Kindly supply the reported percentage of EdU-negative values for the records listed here.
Give just the number in %; leave the unit off.

Qu. For the sequence shown here, MGHRFLRGLLTLLLPPPPLYTRHRMLGPESVPPPKRSRSKLMAPPRIGTHNGTFHCDEALACALLRLLPEYRDAEIVRTRDPEKLASCDIVVDVGGEYDPRRHRYDHHQRSFTETMSSLSPGKPWQTKLSSAGLIYLHFGHKLLAQLLGTSEEDSMVGTLYDKMYENFVEEVDAVDNGISQWAEGEPRYALTTTLSARVARLNPTWNHPDQDTEAGFKRAMDLVQEEFLQRLDFYQHSWLPARALVEEALAQRFQVDPSGEIVELAKGACPWKEHLYHLESGLSPPVAIFFVIYTDQAGQWRIQCVPKEPHSFQSRLPLPEPWRGLRDEALDQVSGIPGCIFVHASGFIGGHRTREGALSMARATLAQRSYLPQIS [Q9HB07] , give the reported percentage of EdU-negative.
Ans. 27.2

Qu. Lookup MRMLLALLALSAARPSASAESHWCYEVQAESSNYPCLVPVKWGGNCQKDRQSPINIVTTKAKVDKKLGRFFFSGYDKKQTWTVQNNGHSVMMLLENKASISGGGLPAPYQAKQLHLHWSDLPYKGSEHSLDGEHFAMEMHIVHEKEKGTSRNVKEAQDPEDEIAVLAFLVEAGTQVNEGFQPLVEALSNIPKPEMSTTMAESSLLDLLPKEEKLRHYFRYLGSLTTPTCDEKVVWTVFREPIQLHREQILAFSQKLYYDKEQTVSMKDNVRPLQQLGQRTVIKSGAPGRPLPWALPALLGPMLACLLAGFLR
Ans. 25.5

Qu. Please give the result for MWLLPALLLLCLSGCLSLKGPGSVTGTAGDSLTVWCQYESMYKGYNKYWCRGQYDTSCESIVETKGEEKVERNGRVSIRDHPEALAFTVTMQNLNEDDAGSYWCKIQTVWVLDSWSRDPSDLVRVYVSPAITTPRRTTHPATPPIFLVVNPGRNLSTGEVLTQNSGFRLSSPHFLLVVLLKLPLLLSMLGAVFWVNRPQWAPPGR [Q496F6] too.
Ans. 26.6

====

Could you please report measured percentage of EdU-negative for the items listed next?
- System: MCF7;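 also: secreted proteins added to cultured cells, EdU pulse at the end, nuclei found by Hoechst imaging, EdU status from nuclear versus surrounding ring intensity ratio, PBS as neutral control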
- test protocol: percentage of EdU-negative (G0-arrested) nuclei per well, 72 h; higher = more G0 arrest
- condition info: protein concentration 0.0225 µM; reference: sequence is the full UniProt precursor, the tested protein was the secreted form or ectodomain
# number only, unit % dropped from output

Qu. Any idea what its percentage of EdU-negative is? The sequence is MGLWGQSVPTASSARAGRYPGARTASGTRPWLLDPKILKFVVFIVAVLLPVRVDSATIPRQDEVPQQTVAPQQQRRSLKEEECPAGSHRSEYTGACNPCTEGVDYTIASNNLPSCLLCTVCKSGQTNKSSCTTTRDTVCQCEKGSFQDKNSPEMCRTCRTGCPRGMVKVSNCTPRSDIKCKNESAASSTGKTPAAEETVTTILGMLASPYHYLIIIVVLVIILAVVVVGFSCRKKFISYLKGICSGGGGGPERVHRVLFRRRSCPSRVPGAEDNARNETLSNRYLQPTQVSEQEIQGQELAELTGVTVELPEEPQRLLEQAEAEGCQRRRLLVPVNDADSADISTLLDASATLEEGHAKETIQDQLVGSEKLFYEEDEAGSATSCL [Q9UBN6]
Ans. 24

Qu. Here is the next sequence: MVGKMWPVLWTLCAVRVTVDAISVETPQDVLRASQGKSVTLPCTYHTSTSSREGLIQWDKLLLTHTERVVIWPFSNKNYIHGELYKNRVSISNNAEQSDASITIDQLTMADNGTYECSVSLMSDLEGNTKSRVRLLVLVPPSKPECGIEGETIIGNNIQLTCQSKEGSPTPQYSWKRYNILNQEQPLAQPASGQPVSLKNISTDTSGYYICTSSNEEGTQFCNITVAVRSPSMNVALYVGIAVGVVAALIIIGIIIYCCCCRGKDDNTEDKEDARPNREAYEEPPEQLRELSREREEEDDYRQEEQRSTGRESPDHLDQ
Ans. 26.3

Qu. And MPGAAEALPTVTVTLVAGAVPPASGALTAHCIGGFWREVGVASDQSLVLTAPKRVEGLFLTLSGSNLTVKVAYNSSGSCEIEKIVGSEIDSTGKFAFPGHREIHVLDTDYEGYAILRVSLMWRGRNFRVLKYFTRSLEDKDRLGFWKFRELTADTGLYLAARPGRCAELLKEELI [Q6JVE9] ?
Ans. 26.5

Qu. Repeat for the following sequence: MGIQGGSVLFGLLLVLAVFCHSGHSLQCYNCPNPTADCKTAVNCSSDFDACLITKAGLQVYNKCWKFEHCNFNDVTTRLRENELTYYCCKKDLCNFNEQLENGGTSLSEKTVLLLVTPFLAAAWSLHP
Ans. 28.2

Qu. Try the sequence MALHIHEACILLLVIPGLVTSAAISHEDYPADEGDQISSNDNLIFDDYRGKGCVDDSGFVYKLGERFFPGHSNCPCVCALDGPVCDQPECPKIHPKCTKVEHNGCCPECKEVKNFCEYHGKNYKILEEFKPSPCEWCRCEPSNEVHCVVADCAVPECVNPVYEPEQCCPVCKNGPNCFAGTTIIPAGIEVKVDECNICHCHNGDWWKPAQCSKRECQGKQTV [B2RUY7]
Ans. 26.9

Qu. What do we get for MQLPLALCLVCLLVHTAFRVVEGQGWQAFKNDATEIIPELGEYPEPPPELENNKTMNRAENGGRPPHHPFETKDVSEYSCRELHFTRYVTDGPCRSAKPVTELVCSGQCGPARLLPNAIGRGKWWRPSGPDFRCIPDRYRAQRVQLLCPGGEAPRARKVRLVASCKCKRLTRFHNQSELKDFGTEAARPQKGRKPRPRARSAKANQAELENAY [Q9BQB4] ?
Ans. 28.1

Qu. Would you kindly repeat that for MSSAARSRLTRATRQEMLFLALLLLPVVVAFARAEAEEDGDLQCLCVKTTSQVRPRHITSLEVIKAGPHCPTAQLIATLKNGRKICLDLQALLYKKIIKEHLES ?
Ans. 25.1
